Value source: the supplement of paper PMC9170038

Please provide measured apparent KD of MS2 coat protein for the entries that follow.
system: MS2 coat protein; test: apparent KD of MS2 coat protein; designed switch direction (-1 OFF switch, 1 ON switch): -1; higher = weaker reporter binding; details: input ligand: microRNA oligo, concentration not stated
Give the value; after it, write the unit.

**Query** Which value of apparent KD of MS2 coat protein has been reported for AGAUGCUCAAGUCGACAUGAGGAUCACCCAUGUACAGUUAAUGAGGAUAUCCGAGAUAAAUAAUAGGAGAAGGCGUGAUCAUGA [Ex NG3 #7] (Eterna round: R96, puzzle: Exclusion NG 3) in the records?
**Result** 383 nM

**Query** Now try CGUAUGUGAGGAUAUGACAAUGGUAUCUUCGGAUACCAUUGUCAGAAGGAACAUGAGGAUCACCCAUGUAGAUC (Eterna round: R96, puzzle: Exclusion 4) .
**Result** 43.1 nM

**Query** Now try CUGCUCCGUGUAGGAUAUGCGCGCACCACCCGCGCAGAAGGACAUGAGGAUCACCCAUGUAUGUUAUUAUCACGUGAGGCGCGC [Design 37] (Eterna round: R96, puzzle: Exclusion NG 1) .
**Result** 10.9 nM

**Query** Now try AACAUGAGGAUCACCCAUGUGGGUCCUCUGUGGCAGCGAGACGAGGAUAUCAAUGGAGGGCCAGGUGAGAAGGUGUACGAUCAU [Eternabot solution 28] (Eterna round: R96, puzzle: Exclusion NG 3) .
**Result** 192 nM

**Query** Now try CAGUACUGAGGAUAUACAUGAGGAUCACCCAUGUGAAAAAGCUACGAAAGUAGCAAAUGUAGAAGGCAGUACUG [Ex3: 806] (Eterna round: R96, puzzle: Exclusion 3) .
**Result** 29.9 nM

###

system: MS2 coat protein; assay: apparent KD of MS2 coat protein; designed switch direction (-1 OFF switch, 1 ON switch): 1; higher = weaker reporter binding; details: input ligand: microRNA oligo, concentration not stated
Cut-off 30 nM on apparent KD of MS2 coat protein, inclusive. At or above means yes (1); below means no (0).

**Query** Could you tell me if the measured apparent KD of MS2 coat protein of AUGAUUAAUGCAGGAUAUGAUUAACAUGAGGAUCACCCAUGUGGUGUUGUGAGUAAGGAGAGUGAUCAGAAGGGCAUUUUUUUU [JMF's solution 34] (Eterna round: R96, puzzle: Same State NG 2) reaches 30 nM or more?
**Result** yes (1)

**Query** Now try GCUAGAAUUAAAGCCAACAUGAGGAUCACCCAUGUAUGUUGGUAGGAUAUCGUUUGCUUUGCAAACGAGAAGGGCUAAACUAGC [JL SSNG3 1.06] (Eterna round: R96, puzzle: Same State NG 3) .
**Result** yes (1)

**Query** Now try AUGACAUGCACAGGAUAUUAGGCGCAGUACAGAUAAGAAGGGUGGAUCAGCAUACAUGAGGAUCACCCAUGUUGUUGUAACAUG [Same State 1 S2] (Eterna round: R96, puzzle: Same State NG 1) .
**Result** yes (1)

**Query** Now try UAUUUAAUCGUAGGAUAUAGAGUGAAAUUUGUACUAGAAGGACGUAACAUGAGGAUCACCCAUGUGGUAAGUGGGACAUAGUAU [JR_SSNG1_Sub037] (Eterna round: R96, puzzle: Same State NG 1) .
**Result** no (0)

**Query** Now try UUAUUAAUUACAUGAGGAUCACCCAUGUUAAAUAGUCAGAGACAGGAUAUAGAAGUCUCGUUUUACUAGAAGGGUCAUUAUAUG [JR_SSNG3_Sub013] (Eterna round: R96, puzzle: Same State NG 3) .
**Result** no (0)

**Query** Now try UGUUGUAUUACAGGAUAUCUAUUAUUUUUAUGUAGAGAAGGGUAUUCACAUGAGGAUCACCCAUGUAUAUACGAGGAAGUUGUG [JMF's solution 29] (Eterna round: R96, puzzle: Same State NG 1) .
**Result** yes (1)

**Query** Now try GGAUGAUAGACAGGAUAUUGAUUGUAAUUAGGUCAAGAAGGGUCAAUGAUUUAAACGACCAGUUACAUGAGGAUCACCCAUGUU [JR_SSNG1_Sub027] (Eterna round: R96, puzzle: Same State NG 1) .
**Result** yes (1)

**Query** Now try GAGGGACAGACCAACAUGAGGAUCACCCAUGUCCUCGCAGGUCAGGAUAUUAUUAGGAUCACCAGUGAGAAGGGACGGUGAACC (Eterna round: R96, puzzle: Same State NG 3) .
**Result** yes (1)

**Query** Now try CCAGGACAUGAGGAUCACCCAUGUGCUUAAUGUGGAGAAUCUCAGGAUAUCAUGAGGAUUACCCAUGAGAAGGGAGAUCCGAGG (Eterna round: R96, puzzle: Same State NG 3) .
**Result** yes (1)
